target: Cathepsin D (CatD) (Homo sapiens (Human), UniProt P07339); experiment: CatD assay; assay type: biochemical; conditions: read-out: IC50 IP (μM) CatD
Sequence (P07339 65-412, species assumed): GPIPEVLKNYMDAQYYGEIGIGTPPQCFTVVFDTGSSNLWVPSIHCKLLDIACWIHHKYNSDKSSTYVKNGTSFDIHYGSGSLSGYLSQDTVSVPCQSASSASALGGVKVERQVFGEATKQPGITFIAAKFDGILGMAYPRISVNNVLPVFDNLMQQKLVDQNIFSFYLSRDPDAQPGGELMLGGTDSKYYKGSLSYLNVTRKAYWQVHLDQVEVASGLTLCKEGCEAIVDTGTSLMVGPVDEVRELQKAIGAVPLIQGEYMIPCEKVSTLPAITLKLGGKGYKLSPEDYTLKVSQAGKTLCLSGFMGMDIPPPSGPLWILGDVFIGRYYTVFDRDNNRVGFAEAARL

# structureAsSmiles, unitsLabel, boundType, IC50
records = [
    ("CN(C)C(=O)[C@]12C[C@H]1[C@@](C)(c1cc(/C=C(\\F)c3ccc(C#N)nc3)ccc1F)N=C(N)S2", "µM", "=", 824),
    ("Cc1noc(COc2cnc(/C(F)=C/c3ccc(F)c([C@@]4(C)N=C(N)S[C@@]5(C(=O)N(C)C)C[C@H]54)c3)cn2)n1", "µM", "=", 438),
    ("COC(=O)[C@]12C[C@H]1[C@@](C)(c1cc(/C=C(\\F)c3ccc(Cl)cn3)cnc1F)N=C(N)S2", "µM", ">", 400),
    ("COc1ncc(/C=C(\\F)c2ccc(C#N)cn2)cc1[C@@]1(C)N=C(N)S[C@@]2(C(=O)N3CC[C@@H](F)C3)C[C@H]21", "µM", "=", 125),
    ("COC[C@]12C[C@H]1[C@@](C)(c1cc(/C=C(\\F)c3ccc(C#N)cn3)ccc1F)N=C(N)S2", "µM", "=", 400),
    ("Cc1nnc(COc2cnc(/C(F)=C/c3ccc(F)c([C@@]4(C)N=C(N)S[C@@]5(C(=O)N(C)C)C[C@H]54)c3)cn2)o1", "µM", "=", 391),
]

====

target: BACE2 (Homo sapiens (Human)); assay: In vitro enzymatic BACE2 FRET assay; assay type: biochemical; settings: read-out: IC50 IP (μM) BACE2 Enzyme
Sequence (Q9Y5Z0 63-518): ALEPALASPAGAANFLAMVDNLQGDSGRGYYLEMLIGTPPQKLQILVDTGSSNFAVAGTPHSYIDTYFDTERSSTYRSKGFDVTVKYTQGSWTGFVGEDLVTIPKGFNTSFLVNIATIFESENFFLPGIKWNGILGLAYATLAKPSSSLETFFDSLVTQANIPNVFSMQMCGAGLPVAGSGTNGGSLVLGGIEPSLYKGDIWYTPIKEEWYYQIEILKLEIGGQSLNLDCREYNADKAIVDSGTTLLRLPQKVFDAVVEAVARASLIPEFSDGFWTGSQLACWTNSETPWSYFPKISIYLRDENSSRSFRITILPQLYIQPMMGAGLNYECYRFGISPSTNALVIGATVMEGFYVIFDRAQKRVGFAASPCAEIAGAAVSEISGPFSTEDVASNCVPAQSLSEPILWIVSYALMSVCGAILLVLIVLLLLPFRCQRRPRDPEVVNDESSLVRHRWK
// reported IC50 for each item listed

# molecule, IC50
measured = [
    ("C[C@@H]1CN=C([C@]23C[C@H]2[C@@](C)(c2cc(/C=C(\\F)c4ccc(C#N)cn4)ccc2F)N=C(N)S3)O1", "0.692 µM"),
    ("C[C@@]1(O)CCN(C(=O)[C@]23C[C@H]2[C@@](C)(c2cc(/C=C(\\F)c4ccc(C#N)cn4)ccc2F)N=C(N)S3)C1 (single isomer, unassigned)", "0.041 µM"),
    ("C[C@@H]1COCCN1C(=O)[C@]12C[C@H]1[C@@](C)(c1cc(/C=C(\\F)c3ccc(C#N)cn3)cnc1F)N=C(N)S2", "0.229 µM"),
    ("C#C[C@H](C)Oc1cnc(/C(F)=C/c2ccc(F)c([C@@]3(C)N=C(N)S[C@@]4(S(C)(=O)=O)C[C@H]43)c2)cn1", "0.108 µM"),
    ("CNC(=O)[C@]12C[C@H]1[C@@](C)(c1cc(/C=C(\\F)c3cnc(Cl)cn3)ccc1F)N=C(N)S2", "0.029 µM"),
    ("C[C@]1(c2cc(/C=C(\\F)c3ccc(C#N)cn3)cnc2F)N=C(N)S[C@@]2(C(=O)N3CCC(F)(F)C3)C[C@H]21", "0.113 µM"),
    ("C[C@]1(c2cc(/C=C(\\F)c3cnc(C#N)cn3)ccc2F)N=C(N)S[C@@]2(C(=O)N3CC[C@@H](F)C3)C[C@H]21", "0.045 µM"),
    ("CC(=O)[C@]12C[C@H]1[C@@](C)(c1cc(/C=C(\\F)c3ccc(C#N)cn3)ccc1F)N=C(N)S2", "0.245 µM"),
    ("C[C@@H]1CN(C(=O)[C@]23C[C@H]2[C@@](C)(c2cc(/C=C(\\F)c4ccc(C#N)cn4)ccc2F)N=C(N)S3)[C@H](C)CO1", "0.239 µM"),
    ("C[C@]1(c2cc(/C=C(\\F)c3ccc(C#N)cn3)cnc2F)N=C(N)S[C@@]2(C(=O)N3CC[C@@H](F)C3)C[C@H]21", "0.033 µM"),
    ("C[C@]1(c2cc(/C=C(\\F)c3ccc(C#N)cn3)ccc2F)N=C(N)S[C@@]2(C(=O)N3CC[C@@H](F)C3)C[C@H]21", "0.0299 µM"),
    ("CNC(=O)[C@]12C[C@H]1[C@@](C)(c1cc(/C=C(\\F)c3cnc(C#CC4CC4)cn3)ccc1F)N=C(N)S2", "0.307 µM"),
    ("C[C@]1(c2cc(/C=C(\\F)c3ccc(C#N)cn3)ccc2F)N=C(N)S[C@@]2(C(=O)N3CCC3)C[C@H]21", "0.015 µM"),
    ("C#Cc1ccc(/C(F)=C/c2ccc(F)c([C@@]3(C)N=C(N)S[C@@]4(C(=O)N5CCOCC5)C[C@H]43)c2)nc1", "0.097 µM"),
    ("CC#CCOc1cnc(/C(F)=C/c2ccc(F)c([C@@]3(C)N=C(N)S[C@@]4(C#N)C[C@H]43)c2)cn1", "0.055 µM"),
]
